Biological target: bovine factor Xa (Bos taurus, UniProt P00743)
Construct: bovine factor Xa
Sequence (P00743 234-492 limits assumed): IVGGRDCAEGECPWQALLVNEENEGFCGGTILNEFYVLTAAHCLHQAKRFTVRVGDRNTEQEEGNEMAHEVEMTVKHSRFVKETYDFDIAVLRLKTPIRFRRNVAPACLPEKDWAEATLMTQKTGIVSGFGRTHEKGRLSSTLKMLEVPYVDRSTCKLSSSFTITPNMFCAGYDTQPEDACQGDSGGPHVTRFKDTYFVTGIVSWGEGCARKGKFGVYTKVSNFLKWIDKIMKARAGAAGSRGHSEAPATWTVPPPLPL
Sequence (P00743 41-180 partner limits assumed): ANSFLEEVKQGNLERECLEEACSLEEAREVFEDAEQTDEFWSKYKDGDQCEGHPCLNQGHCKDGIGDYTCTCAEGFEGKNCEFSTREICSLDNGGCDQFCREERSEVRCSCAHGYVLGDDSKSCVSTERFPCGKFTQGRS
Assay: Inactivation rate of bovine factor Xa
Type: biochemical
Conditions: Table I; pH 7.5, 25° C; [I] 0.4 to 310 μM; read-out: kobs/[I]
readout-kind: kinact/KI

1. N=C(N)SCCOc1oc(=O)c2ccccc2c1Cl ... 5600 M⁻¹ s⁻¹
2. N=C(N)Nc1ccc2cc(OCCc3ccccc3)oc(=O)c2c1 ... 11000 M⁻¹ s⁻¹
3. N=C(N)Nc1ccc2c(Cl)c(OCCc3ccccc3)oc(=O)c2c1 ... 96000 M⁻¹ s⁻¹
4. CCOc1oc(=O)c2cc(NC(=N)N)ccc2c1Cl ... 26700 M⁻¹ s⁻¹
5. N=C(N)SCCCOc1oc(=O)c2ccccc2c1Cl ... 220 M⁻¹ s⁻¹

----------
Molecular target: porcine pancreatic elastase (PPE) (Sus scrofa)
Construct: from tissue; host or cells: porcine pancreas (from the name)
Sequence (P00772 27-266): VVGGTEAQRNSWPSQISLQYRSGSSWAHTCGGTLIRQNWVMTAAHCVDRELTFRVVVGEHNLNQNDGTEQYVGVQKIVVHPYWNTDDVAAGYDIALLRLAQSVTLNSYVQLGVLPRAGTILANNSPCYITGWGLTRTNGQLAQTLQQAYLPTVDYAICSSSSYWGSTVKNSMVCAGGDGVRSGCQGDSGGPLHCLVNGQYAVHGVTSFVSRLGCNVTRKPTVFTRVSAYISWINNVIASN
Assay: Inactivation of porcine pancreatic elastase (PPE)
Assay type: biochemical
Conditions: Table XVI; pH 7.5, 25° C; [I] 0.04-2.0 mM; read-out: kobs/[I]
Would you please tag the item True when its kinact/KI is 2000 M⁻¹ s⁻¹ or above, and False when it is below?

1) CC(CBr)Oc1oc(=O)c2cc(N)ccc2c1Cl (centres unmarked) ... False
2) O=C(Nc1ccccc1)Nc1ccc2c(Cl)c(OCCCBr)oc(=O)c2c1 ... False
3) C[C@@H](NC(=O)Nc1ccc2c(Cl)c(OCCBr)oc(=O)c2c1)c1ccccc1 ... True
4) CC(C)(C)CC(=O)Nc1ccc2c(Cl)c(OCCBr)oc(=O)c2c1 ... True
5) CCCOc1oc(=O)c2cc(N)ccc2c1Cl ... False
6) O=C(Cc1ccccc1)Nc1ccc2c(Cl)c(OCCCBr)oc(=O)c2c1 ... False
7) CC(CBr)Oc1oc(=O)c2cc([N+](=O)[O-])ccc2c1Cl (centres unmarked) ... False
8) Nc1ccc2c(Cl)c(OCCCBr)oc(=O)c2c1 ... False
9) O=C(Cc1ccccc1)Nc1ccc2c(Cl)c(OCCBr)oc(=O)c2c1 ... True
10) Nc1ccc2c(Cl)c(OCCBr)oc(=O)c2c1 ... False
11) C[C@H](NC(=O)OC(C)(C)C)C(=O)N[C@@H](C)C(=O)Nc1ccc2c(Cl)c(OCCBr)oc(=O)c2c1 ... False
12) CC(=O)Nc1ccc2c(Cl)c(OCCCBr)oc(=O)c2c1 ... False
13) O=C(Nc1ccccc1)Nc1ccc2c(Cl)c(OCCBr)oc(=O)c2c1 ... False
14) CC(C)NC(=O)Nc1ccc2c(Cl)c(OCCBr)oc(=O)c2c1 ... True
15) O=C(Nc1ccc2c(Cl)c(OCCBr)oc(=O)c2c1)Nc1cccc2ccccc12 ... False
16) CC(C)(C)NC(=O)Nc1ccc2c(Cl)c(OCCBr)oc(=O)c2c1 ... True
17) O=c1oc(OCCBr)c(Cl)c2ccc([N+](=O)[O-])cc12 ... True
18) O=C(NCc1ccccc1)Nc1ccc2c(Cl)c(OCCCBr)oc(=O)c2c1 ... False
19) O=c1oc(OCCBr)c(Cl)c2ccc(NC(=S)Nc3ccccc3)cc12 ... False
20) CC(C)(C)OC(=O)N[C@@H](Cc1ccccc1)C(=O)Nc1ccc2c(Cl)c(OCCBr)oc(=O)c2c1 ... False
21) C[C@H](NC(=O)Nc1ccc2c(Cl)c(OCCBr)oc(=O)c2c1)c1ccccc1 ... True
22) CC(C)(C)OC(=O)N[C@H](Cc1ccccc1)C(=O)Nc1ccc2c(Cl)c(OCCBr)oc(=O)c2c1 ... False
23) O=C(NCc1ccccc1)Nc1ccc2c(Cl)c(OCCBr)oc(=O)c2c1 ... True
